- Tested on: RWPE-1
- test description: Cytotoxicity against human RWPE1 cells assessed as cell growth inhibition after 24 hrs by MTT assay
- Assay type: cell-based
- test context: RWPE-1, 24 h
Task for the reader: assign each of the following molecules its reported IC50.

// known answers, use as guide
[
  {
    "molecule": "O=C1C[C@@H](c2ccccc2)N2CCc3cc4c(cc3[C@@H]2C1)OCO4 (relative stereo)",
    "IC50": "> 20 µM"
  },
  {
    "molecule": "Cc1cc(C)cc(COc2cc3c(cc2OCc2cc(C)cc(C)c2)[C@@H]2C[C@@H](O)C[C@@H](C)N2CC3)c1 (racemic)",
    "IC50": "1.35 µM"
  },
  {
    "molecule": "CC[C@@H]1CC(=O)C/C=C(/C)[C@H]2c3cc(OCc4ccccc4)c(OCc4ccccc4)cc3CCN12 (relative stereo)",
    "IC50": "> 20 µM"
  },
  {
    "molecule": "C[C@@H]1CC(=O)C[C@H]2c3cc(OCc4cccc(F)c4)c(OCc4cccc(F)c4)cc3CCN12",
    "IC50": "> 20 µM"
  },
  {
    "molecule": "O[C@H]1C[C@@H](c2ccc(-c3ccccc3)cc2)N2CCc3cc(OCc4ccccc4)c(OCc4ccccc4)cc3[C@@H]2C1",
    "IC50": "> 20 µM"
  }
]

Dear colleague, could you please provide IC50 for the molecules listed below?
1. C[C@@H]1C[C@H](O)C[C@H]2c3cc(OCc4ccc(Br)cc4)c(OCc4ccc(Br)cc4)cc3CCN12
2. Cc1cc(C)cc(COc2cc3c(cc2OCc2cc(C)cc(C)c2)[C@@H]2C[C@](C)(O)C[C@@H](C)N2CC3)c1
3. O[C@@H]1C[C@@H](c2ccccc2)N2CCc3ccccc3[C@@H]2C1
4. CC(=O)O[C@@]12CO[C@@H]1C[C@H](O)[C@@]1(C)C(=O)[C@H](O)C3=C(C)[C@@H](OC(=O)[C@H](O)[C@@H](NC(=O)OC(C)(C)C)c4ccccc4)C[C@@](O)([C@@H](OC(=O)c4ccccc4)[C@H]21)C3(C)C [DOCETAXEL ANHYDROUS]
5. Oc1cc2c(cc1O)[C@@H]1C[C@@H](O)C[C@@H](c3ccccc3)N1CC2

Completion:
1: 2.89 µM; 2: 4.77 µM; 3: > 20 µM; 4: 1.73 µM; 5: > 20 µM

Give measured IC50 for every item shown.
1. O=C1C[C@@H](c2ccccc2)N2CCc3cc(OCc4ccccc4)ccc3[C@@H]2C1 (relative stereo)
2. C[C@@H]1C[C@@](C)(O)C[C@H]2c3cc(OCc4ccc(Br)cc4)c(OCc4ccc(Br)cc4)cc3CCN12
3. O[C@H]1C[C@@H](c2ccccc2)N2CCc3cc(OCc4ccccc4)c(OCc4ccccc4)cc3[C@@H]2C1
4. CC[C@@H]1C[C@@H](O)C[C@H]2c3cc(OCc4ccccc4)c(OCc4ccccc4)cc3CCN12

Completion:
1: > 20 µM; 2: 2.95 µM; 3: > 20 µM; 4: 2.2 µM

I need IC50 for every entry listed below, if you could help.
1. COc1cc2c(cc1OC)[C@@H]1C[C@@H](O)C[C@@H](c3ccccc3)N1CC2
2. CC[C@@H]1C[C@@H](O)C/C=C(/C)[C@H]2c3cc(OCc4ccccc4)c(OCc4ccccc4)cc3CCN12
3. C/C=C/C(=O)CC1c2cc(OCc3cc(C)cc(C)c3)c(OCc3cc(C)cc(C)c3)cc2CCN1C(=O)OC(C)(C)C (configuration not stated)

Completion:
1: > 20 µM; 2: > 20 µM; 3: > 20 µM

Cited source: ChEMBL document CHEMBL4425094
